// reported IC50 per item
molecular target: human S1P3 receptor (Homo sapiens); construct: expressed in transfected cells; experiment: FLIPR assay in T24 cells stably expressing the human S1P3 receptor; type: cell-based; conditions: FLIPR; values given in μM; read-out: S1P3 (IC50)
Sequence (Q99500 whole entry): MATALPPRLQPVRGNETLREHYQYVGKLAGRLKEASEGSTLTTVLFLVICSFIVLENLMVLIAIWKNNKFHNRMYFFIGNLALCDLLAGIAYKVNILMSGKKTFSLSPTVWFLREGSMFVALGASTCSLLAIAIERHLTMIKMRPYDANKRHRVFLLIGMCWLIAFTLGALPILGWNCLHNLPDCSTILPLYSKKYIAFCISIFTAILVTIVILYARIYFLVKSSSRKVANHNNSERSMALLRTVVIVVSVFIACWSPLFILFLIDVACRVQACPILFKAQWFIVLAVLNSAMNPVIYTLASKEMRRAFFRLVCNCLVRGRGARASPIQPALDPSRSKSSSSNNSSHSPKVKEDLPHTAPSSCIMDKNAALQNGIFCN
recordedEndpoint: IC50

1) CCc1ccc(-c2ccc(CNCCP(=O)(O)O)nc2-c2ccccc2)cc1 : 1.8 µM
2) CCc1ccc(-c2ccc(COCCCP(=O)(O)O)nc2-c2ccccc2)cc1 : 4 µM
3) Cc1ccc(-c2ccc(COCCCP(=O)(O)O)nc2-c2ccccc2)cc1 : 1.9 µM
4) O=P(O)(O)CCCNCc1ccc(-c2ccccc2)c(-c2ccccc2)n1 : 1.6 µM
5) CCc1ccc(-c2ccc(CNCCCP(=O)(O)O)nc2-c2ccncc2)cc1 : 1.1 µM
6) CCc1ccc(-c2ccc(CNCCP(=O)(O)O)nc2-c2ccncc2)cc1 : 1.8 µM

###

Molecular target: human S1P3 receptor (Homo sapiens)
Construct: expressed in transfected cells
Assay: FLIPR assay in T24 cells stably expressing the human S1P3 receptor
Type: cell-based
Conditions: T-24; percent of activity induced by 5 nM sphingosine-1-phosphate inhibited at 10 μM; table of additional selective S1P3 inhibitors; read-out: S1P3 percent inhibition (in parenthesis)
From the text: Another method of determining if a compound is an S1P3 receptor inhibitor is with a FLIPR assay. An example of this method is described in U.S. patent application Ser. No. 11/675,168, the contents of which are incorporated herein by reference. According to that application, compounds may be assessed for their ability to activate or block activation of the human S1P3 receptor in T24 cells stably expressing the human S1P3 receptor. […]
recordedEndpoint: inhibition at 10 µM (%)

1) CC(C)c1c(C(=O)NCc2ccc(F)c(F)c2)c2ccccc2n1Cc1ccccc1 : 100
2) CCCOc1ccc2c(C(=O)NCc3ccc(F)c(F)c3)c(C(C)C)n(Cc3ccccc3)c2c1 : 100
3) O=C(NCc1ccc(F)c(F)c1)c1c(C2CCCC2)n(Cc2ccccc2)c2ccc(O)cc12 : 100
4) CCOc1ccc2c(C(=O)NCc3ccc(F)c(F)c3)c(C(C)C)n(Cc3ccccc3)c2c1 : 100
5) CC(C)c1c(C(=O)NCc2ccc(F)c(F)c2)c2cc(O)ccc2n1Cc1ccccc1 : 98
